A collection of compounds and their measured mass density
# run-parameters: 298.15 K; 101.33 kPa; Liquid; Vibrating tube method
value-type: mass density (kg/m3)

compound	value-type	quantitative-result
CCn1cc[n+](C)c1.CS(=O)(=O)[O-] [1-ethyl-3-methylimidazolium methanesulfonate]	mass density	1242.4
CCn1cc[n+](C)c1.N#C[S-] [1-ethyl-3-methylimidazolium thiocyanate]	mass density	1117
CCn1cc[n+](C)c1.O=S(=O)([O-])C(F)(F)F [1-ethyl-3-methylimidazolium trifluoromethanesulfonate]	mass density	1385.9
CCn1cc[n+](C)c1.N#CN=C=[N-] [1-ethyl-3-methylimidazolium dicyanamide]	mass density	1104
CCn1cc[n+](C)c1.CO[PH](=O)[O-] [1-ethyl-3-methylimidazolium methyl phosphonate]	mass density	1208.3
CC(=O)[O-].CCn1cc[n+](C)c1 [1-ethyl-3-methylimidazolium acetate]	mass density	1099.3

====

# run-parameters: 353.15 K; 101.33 kPa; Liquid

compound	scale-unit	viscosity
CCn1cc[n+](C)c1.COP(=O)([O-])OC [1-ethyl-3-methylimidazolium dimethylphosphate]	mPa·s	23.17
CCn1cc[n+](C)c1.N#C[S-] [1-ethyl-3-methylimidazolium thiocyanate]	mPa·s	6.472
CC(=O)[O-].CCn1cc[n+](C)c1 [1-ethyl-3-methylimidazolium acetate]	mPa·s	14.16
CCn1cc[n+](C)c1.CO[PH](=O)[O-] [1-ethyl-3-methylimidazolium methyl phosphonate]	mPa·s	20.83

====

# run-parameters: 323.15 K; 101.33 kPa; Liquid
Property: viscosity; scope: individual compounds

compound	scale-unit	viscosity
CCn1cc[n+](C)c1.CO[PH](=O)[O-] [1-ethyl-3-methylimidazolium methyl phosphonate]	mPa·s	57.94
CCn1cc[n+](C)c1.N#C[S-] [1-ethyl-3-methylimidazolium thiocyanate]	mPa·s	11.97
CCn1cc[n+](C)c1.COP(=O)([O-])OC [1-ethyl-3-methylimidazolium dimethylphosphate]	mPa·s	68.64
CC(=O)[O-].CCn1cc[n+](C)c1 [1-ethyl-3-methylimidazolium acetate]	mPa·s	38.95

====

# run-parameters: 343.15 K; 101.33 kPa; Liquid
For each record, check the reported viscosity: if it is below 20 mPa·s write true, else write false.

compound	assigned-label
CC(=O)[O-].CCn1cc[n+](C)c1 [1-ethyl-3-methylimidazolium acetate]	true
CCn1cc[n+](C)c1.COP(=O)([O-])OC [1-ethyl-3-methylimidazolium dimethylphosphate]	false
CCn1cc[n+](C)c1.O=S(=O)([O-])C(F)(F)F [1-ethyl-3-methylimidazolium trifluoromethanesulfonate]	true
CCn1cc[n+](C)c1.CO[PH](=O)[O-] [1-ethyl-3-methylimidazolium methyl phosphonate]	false
CCn1cc[n+](C)c1.N#C[S-] [1-ethyl-3-methylimidazolium thiocyanate]	true
CCn1cc[n+](C)c1.N#CN=C=[N-] [1-ethyl-3-methylimidazolium dicyanamide]	true
CCn1cc[n+](C)c1.CS(=O)(=O)[O-] [1-ethyl-3-methylimidazolium methanesulfonate]	false
CCn1cc[n+](C)c1.Cc1ccc(S(=O)(=O)[O-])cc1 [1-ethyl-3-methylimidazolium 4-methylbenzenesulfonate]	false

====

The reader will find reported viscosity values listed item by item below.
# run-parameters: 333.15 K; 101.33 kPa; Liquid
value-type: viscosity (mPa·s)

compound	scale-unit	quantitative-result
CCn1cc[n+](C)c1.COP(=O)([O-])OC [1-ethyl-3-methylimidazolium dimethylphosphate]	mPa·s	45.47
CCn1cc[n+](C)c1.O=S(=O)([O-])C(F)(F)F [1-ethyl-3-methylimidazolium trifluoromethanesulfonate]	mPa·s	15.21
CCn1cc[n+](C)c1.N#CN=C=[N-] [1-ethyl-3-methylimidazolium dicyanamide]	mPa·s	6.951
CCn1cc[n+](C)c1.CO[PH](=O)[O-] [1-ethyl-3-methylimidazolium methyl phosphonate]	mPa·s	39.29
CCn1cc[n+](C)c1.CS(=O)(=O)[O-] [1-ethyl-3-methylimidazolium methanesulfonate]	mPa·s	31.81
CCn1cc[n+](C)c1.Cc1ccc(S(=O)(=O)[O-])cc1 [1-ethyl-3-methylimidazolium 4-methylbenzenesulfonate]	mPa·s	128.18
CCn1cc[n+](C)c1.N#C[S-] [1-ethyl-3-methylimidazolium thiocyanate]	mPa·s	9.528
CC(=O)[O-].CCn1cc[n+](C)c1 [1-ethyl-3-methylimidazolium acetate]	mPa·s	26.47

====

# procedure-text: refractive index (Na D-line) (dimensionless)
# run-parameters: 298.19 K; 101.33 kPa; Liquid; Standard Abbe refractometry
value-type: refractive index

compound	value-type	quantitative-result
CCn1cc[n+](C)c1.COP(=O)([O-])OC [1-ethyl-3-methylimidazolium dimethylphosphate]	refractive index	1.48175
CC(=O)[O-].CCn1cc[n+](C)c1 [1-ethyl-3-methylimidazolium acetate]	refractive index	1.50091
CCn1cc[n+](C)c1.N#CN=C=[N-] [1-ethyl-3-methylimidazolium dicyanamide]	refractive index	1.51428
CCn1cc[n+](C)c1.O=S(=O)([O-])C(F)(F)F [1-ethyl-3-methylimidazolium trifluoromethanesulfonate]	refractive index	1.43296
CCn1cc[n+](C)c1.CO[PH](=O)[O-] [1-ethyl-3-methylimidazolium methyl phosphonate]	refractive index	1.49249
CCn1cc[n+](C)c1.CS(=O)(=O)[O-] [1-ethyl-3-methylimidazolium methanesulfonate]	refractive index	1.49542

====

# run-parameters: 363.15 K; 101.33 kPa; Liquid; Vibrating tube method
Reported values of mass density for individual entries

molecule	mass density (kg/m3)
CCn1cc[n+](C)c1.N#CN=C=[N-] [1-ethyl-3-methylimidazolium dicyanamide]	1062.3
CCn1cc[n+](C)c1.CO[PH](=O)[O-] [1-ethyl-3-methylimidazolium methyl phosphonate]	1167.9
CCn1cc[n+](C)c1.CS(=O)(=O)[O-] [1-ethyl-3-methylimidazolium methanesulfonate]	1199.7
CCn1cc[n+](C)c1.O=S(=O)([O-])C(F)(F)F [1-ethyl-3-methylimidazolium trifluoromethanesulfonate]	1332.5
CCn1cc[n+](C)c1.COP(=O)([O-])OC [1-ethyl-3-methylimidazolium dimethylphosphate]	1174.7
CC(=O)[O-].CCn1cc[n+](C)c1 [1-ethyl-3-methylimidazolium acetate]	1060.6
CCn1cc[n+](C)c1.N#C[S-] [1-ethyl-3-methylimidazolium thiocyanate]	1078.7
CCn1cc[n+](C)c1.Cc1ccc(S(=O)(=O)[O-])cc1 [1-ethyl-3-methylimidazolium 4-methylbenzenesulfonate]	1185.5

====

# run-parameters: 278.15 K; 101.33 kPa; Liquid; Vibrating tube method
Reported mass density values follow for various molecules

molecule	mass density [kg/m3]
CCn1cc[n+](C)c1.N#CN=C=[N-] [1-ethyl-3-methylimidazolium dicyanamide]	1117.9
CCn1cc[n+](C)c1.N#C[S-] [1-ethyl-3-methylimidazolium thiocyanate]	1129.7
CCn1cc[n+](C)c1.CS(=O)(=O)[O-] [1-ethyl-3-methylimidazolium methanesulfonate]	1257.1
CCn1cc[n+](C)c1.O=S(=O)([O-])C(F)(F)F [1-ethyl-3-methylimidazolium trifluoromethanesulfonate]	1403.3
CC(=O)[O-].CCn1cc[n+](C)c1 [1-ethyl-3-methylimidazolium acetate]	1112.4
CCn1cc[n+](C)c1.CO[PH](=O)[O-] [1-ethyl-3-methylimidazolium methyl phosphonate]	1222.2

====

# run-parameters: 323.15 K; 101.33 kPa; Liquid

molecule	viscosity, mPa·s
CCn1cc[n+](C)c1.Cc1ccc(S(=O)(=O)[O-])cc1 [1-ethyl-3-methylimidazolium 4-methylbenzenesulfonate]	242.85
CCn1cc[n+](C)c1.N#CN=C=[N-] [1-ethyl-3-methylimidazolium dicyanamide]	8.518
CCn1cc[n+](C)c1.CS(=O)(=O)[O-] [1-ethyl-3-methylimidazolium methanesulfonate]	46.54
CCn1cc[n+](C)c1.O=S(=O)([O-])C(F)(F)F [1-ethyl-3-methylimidazolium trifluoromethanesulfonate]	19.62

====

mass density values, listed per item
# run-parameters: 283.15 K; 101.33 kPa; Liquid; Vibrating tube method

compound	mass density / kg/m3
CCn1cc[n+](C)c1.CO[PH](=O)[O-] [1-ethyl-3-methylimidazolium methyl phosphonate]	1218.6
CC(=O)[O-].CCn1cc[n+](C)c1 [1-ethyl-3-methylimidazolium acetate]	1108.9
CCn1cc[n+](C)c1.N#C[S-] [1-ethyl-3-methylimidazolium thiocyanate]	1126.5
CCn1cc[n+](C)c1.N#CN=C=[N-] [1-ethyl-3-methylimidazolium dicyanamide]	1114.3
CCn1cc[n+](C)c1.O=S(=O)([O-])C(F)(F)F [1-ethyl-3-methylimidazolium trifluoromethanesulfonate]	1398.9
CCn1cc[n+](C)c1.CS(=O)(=O)[O-] [1-ethyl-3-methylimidazolium methanesulfonate]	1253.3

====

# procedure-text: refractive index (Na D-line) (dimensionless)
# run-parameters: 303.1 K; 101.33 kPa; Liquid; Standard Abbe refractometry

molecule	refractive index
CCn1cc[n+](C)c1.N#CN=C=[N-] [1-ethyl-3-methylimidazolium dicyanamide]	1.51269
CCn1cc[n+](C)c1.COP(=O)([O-])OC [1-ethyl-3-methylimidazolium dimethylphosphate]	1.4805
CCn1cc[n+](C)c1.CO[PH](=O)[O-] [1-ethyl-3-methylimidazolium methyl phosphonate]	1.49115
CCn1cc[n+](C)c1.CS(=O)(=O)[O-] [1-ethyl-3-methylimidazolium methanesulfonate]	1.49399
CCn1cc[n+](C)c1.O=S(=O)([O-])C(F)(F)F [1-ethyl-3-methylimidazolium trifluoromethanesulfonate]	1.43159
CC(=O)[O-].CCn1cc[n+](C)c1 [1-ethyl-3-methylimidazolium acetate]	1.49949
